# Test system: Escherichia coli TOP10;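 also: peptides expressed intracellularly from a pBAD plasmid library in pooled LB shake-flask culture, induced with 0.3% L-arabinose, DNA abundance read by NGS, three biological replicates, DESeq2 with apeglm shrinkage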
# Method: shrunken log2 fold change of peptide-encoding DNA abundance (4.5 h post-induction vs induction); higher = less antimicrobial activity (less host growth inhibition)
# Stated Conditions: time post-induction: 4.5 h; library: site-saturation at positions 5, 18, 19, 20
Would you mind telling me the reported shrunken log2 fold change of each entry?
Respond using a number only.

Which shrunken log2 fold change reading was recorded for the sequence RRIRKRPPRLPRPRPRPDHIPRP ?
-0.0249

Try this sequence next: RRIRVRPPRLPRPRPRPSREPRP
0.0823

Same lookup for RRIRPRPPRLPRPRPRPWKCPRP , please.
0.0176

Field entry: RRIRNRPPRLPRPRPRPSGGPRP
0.0638

Repeat with RRIRLRPPRLPRPRPRPHNGPRP
-0.00962

How about this sequence: RRIRSRPPRLPRPRPRPRTCPRP
0.0915

Okay, and RRIRWRPPRLPRPRPRPAYQPRP ?
0.106

Also RRIRCRPPRLPRPRPRPMYKPRP ?
-0.471

Input RRIRMRPPRLPRPRPRPHSEPRP
0.134

Note, next up: RRIRKRPPRLPRPRPRPYPSPRP
0.0794

Record: RRIRRRPPRLPRPRPRPPGMPRP
0.821

// same read-out, input: RRIRTRPPRLPRPRPRPYAVPRP
-0.331

Query RRIRRRPPRLPRPRPRPNYDPRP next
-0.187

Also RRIRWRPPRLPRPRPRPFMDPRP ?
-0.41

# iterate: RRIRPRPPRLPRPRPRPACVPRP
0.26

Can you handle RRIRMRPPRLPRPRPRPNEEPRP next?
-0.0651

Queued: RRIRCRPPRLPRPRPRPDGCPRP
-0.0861

Similarly, RRIRTRPPRLPRPRPRPMDYPRP ?
-0.00965

How about this sequence: RRIRERPPRLPRPRPRPTTFPRP
-0.367

Moving on to RRIRTRPPRLPRPRPRPWYYPRP
-0.117

For RRIRRRPPRLPRPRPRPNQHPRP then?
0.00413

Request: RRIRNRPPRLPRPRPRPSCFPRP
-0.398

Do the same for RRIRPRPPRLPRPRPRPMDAPRP please
-0.128

Same again, this time with RRIRRRPPRLPRPRPRPNKAPRP
0.158

Please give the result for RRIRLRPPRLPRPRPRPNHNPRP too.
-0.726

Same read-out for RRIRHRPPRLPRPRPRPATPPRP ?
0.299

Would you kindly repeat that for RRIRTRPPRLPRPRPRPPTCPRP ?
0.174

Also need RRIRLRPPRLPRPRPRPYCKPRP , thanks.
-0.736

What about RRIRDRPPRLPRPRPRPEKPPRP ?
-0.173

Next sequence up: RRIRERPPRLPRPRPRPFNLPRP
-0.233

Proceed to RRIRQRPPRLPRPRPRPMDGPRP
-0.199

Now this one: RRIRHRPPRLPRPRPRPVNPPRP
-0.307

Origin of measurements: the supplement of paper PMC9112550
